# experimental target: Alpha 1A (Homo sapiens)
# Sequence (P35348 whole entry): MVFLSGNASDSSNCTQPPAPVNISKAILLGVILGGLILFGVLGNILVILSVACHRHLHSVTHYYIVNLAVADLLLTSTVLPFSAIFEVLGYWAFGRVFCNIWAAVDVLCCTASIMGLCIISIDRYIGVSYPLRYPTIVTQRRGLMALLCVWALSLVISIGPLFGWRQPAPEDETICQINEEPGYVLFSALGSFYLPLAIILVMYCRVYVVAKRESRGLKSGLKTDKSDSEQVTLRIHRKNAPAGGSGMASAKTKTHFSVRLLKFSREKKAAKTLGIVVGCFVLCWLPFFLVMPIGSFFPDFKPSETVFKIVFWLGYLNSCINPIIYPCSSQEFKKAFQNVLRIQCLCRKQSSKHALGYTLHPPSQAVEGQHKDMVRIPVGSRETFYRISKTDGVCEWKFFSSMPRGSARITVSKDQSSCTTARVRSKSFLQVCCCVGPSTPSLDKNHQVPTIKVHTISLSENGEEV
# measurement description: RSAT assay, Alpha 1A
# Method: The RSAT assay measures a receptor-mediated loss of contact inhibition that results in selective proliferation of receptor-containing cells in a mixed population of confluent cells. The increase in cell number is assessed with an appropriate transfected marker gene such as […]-galactosidase, the activity of which can be easily measured in a 96-well format. Receptors that activate the G protein, Gq, elicit this response. […]
Recorded EC50 by entry
property: EC50 (nM)

1) CNc1ccc(Cc2nc[nH]c2C)c2ccccc12 = 13
2) Cc1[nH]cnc1Cc1ccc(N)c2ccccc12 = 55
